test system: MOLM-13 cells; assay: Cell viability assay (CellTiter-Glo) in MOLM-13 cells, alone or with gilteritinib; assay type: cell-based; settings: Homo sapiens, MOLM-13, 72 h, MOLM-13 cells, compound alone (without gilteritinib), three days, CellTiter-Glo; read-out: MOLM-13 IC50
Each entry below carries its recorded IC50.

compound	IC50
O=C1CCC(N2C(=O)c3ccc(NC[C@H]4C[C@H](n5cc(C6CC6)c(C6CC6)n5)C4)cc3C2=O)C(=O)N1 (some centres unmarked) [GS-632]	> 1 µM
CN1CCC(Nc2ccc(-c3cn([C@H]4C[C@H](CNc5ccc6c(c5)C(=O)N(C5CCC(=O)NC5=O)C6=O)C4)nc3C3CC3)nc2)CC1 (some centres unmarked) [GS-303]	> 1 µM
CN1CCC(c2cnn([C@H]3C[C@H](CCCNc4ccc5c(c4)C(=O)N(C4CCC(=O)NC4=O)C5=O)C3)c2)CC1 (some centres unmarked) [GS-435]	> 1 µM
CN1CCC(c2ccc3ncc(-c4cnn(CCCCCCNc5ccc6c(c5)C(=O)N(C5CCC(=O)NC5=O)C6=O)c4)nc3c2)CC1 (centres unmarked) [GS-548]	0.1 to 1 µM
O=C1CCC(N2C(=O)c3ccc(NC[C@H]4C[C@H](n5cc(-c6ncccc6C6CC6)c(C6CC6)n5)C4)cc3C2=O)C(=O)N1 (some centres unmarked) [GS-467]	0.01 to 0.1 µM
Cc1cccc(-c2ccn([C@H]3C[C@H](CNc4ccc5c(c4)C(=O)N(C4CCC(=O)NC4=O)C5=O)C3)n2)n1 (some centres unmarked) [GS-065]	> 1 µM
CC(C)n1ncc2c(-c3cn([C@H]4C[C@H](CNc5ccc6c(c5)C(=O)N(C5CCC(=O)NC5=O)C6=O)C4)nc3C3CC3)nccc21 (some centres unmarked) [GS-612]	< 0.01 µM
O=C1CCC(N2Cc3c(Nc4ccnc(Nc5cccc(CN6CCC(n7cc(-c8cnc9ccccc9n8)cn7)CC6)c5)n4)cccc3C2=O)C(=O)N1 (centres unmarked) [GS-029]	> 1 µM
O=C1CCC(N2Cc3cc(CCCCCCn4cc(-c5cnc6ccccc6n5)cn4)ccc3C2=O)C(=O)N1 (centres unmarked) [GS-374]	> 1 µM
O=C1CCC(N2Cc3ccc(NCCCCCn4cc(-c5cnc6ccccc6n5)cn4)cc3C2=O)C(=O)N1 (centres unmarked) [GS-519]	> 1 µM
O=C1CCC(N2C(=O)c3ccc(NCCCCCCn4cc(-c5cnc6ccc(N7CCNCC7)cc6n5)cn4)cc3C2=O)C(=O)N1 (centres unmarked) [GS-532]	0.1 to 1 µM
O=C1CCC(N2Cc3ccc(NCCCC4CC(n5cc(-c6cnc7ccccc7n6)cn5)C4)cc3C2=O)C(=O)N1 (centres unmarked) [GS-131]	> 1 µM
O=C1CCC(N2C(=O)c3ccc(NC[C@H]4C[C@H](n5cc(-c6ncccc6Cl)c(C6CC6)n5)C4)cc3C2=O)C(=O)N1 (some centres unmarked) [GS-272]	0.01 to 0.1 µM
Cc1nn([C@H]2C[C@H](CCCNc3ccc4c(c3)C(=O)N(C3CCC(=O)NC3=O)C4=O)C2)cc1-c1cnc2c(C3CCN(C)CC3)cccc2n1 (some centres unmarked) [GS-418]	0.01 to 0.1 µM
